Each entry below carries its reported IC50 (µg/mL), pseudovirus neutralization.
Target Desc: HIV-1 94UG103 Env (clade A pseudovirus) (HIV-1)
Assay: cell-based or functional assay

1495_C14 (PGC14) (antibody, human IgG1, lambda, V domains shown) VH: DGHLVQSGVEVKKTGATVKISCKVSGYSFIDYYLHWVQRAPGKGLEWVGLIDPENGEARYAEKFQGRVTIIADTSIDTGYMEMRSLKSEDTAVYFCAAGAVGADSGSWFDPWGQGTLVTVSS VL: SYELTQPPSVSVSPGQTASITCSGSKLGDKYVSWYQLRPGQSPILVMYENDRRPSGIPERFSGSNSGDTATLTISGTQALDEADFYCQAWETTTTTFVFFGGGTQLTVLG: > 50 µg/mL
1456_P20 (PG20) (antibody, human IgG1, kappa, V domains shown) VH: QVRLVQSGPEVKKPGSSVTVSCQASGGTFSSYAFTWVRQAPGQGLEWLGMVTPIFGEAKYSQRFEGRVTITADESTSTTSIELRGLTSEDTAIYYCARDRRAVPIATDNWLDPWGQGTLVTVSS VL: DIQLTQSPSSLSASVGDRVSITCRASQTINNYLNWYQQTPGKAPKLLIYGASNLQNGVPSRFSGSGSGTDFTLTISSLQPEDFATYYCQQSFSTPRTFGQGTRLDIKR: > 50 µg/mL

Request: Provide IC50 (µg/mL), pseudovirus neutralization value for the following binder: 1460_G14 (PGG14) (antibody, human IgG1, kappa, V domains shown) VH: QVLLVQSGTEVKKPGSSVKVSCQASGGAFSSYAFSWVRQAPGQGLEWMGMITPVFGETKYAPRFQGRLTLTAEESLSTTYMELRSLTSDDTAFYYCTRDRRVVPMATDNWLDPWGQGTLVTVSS VL: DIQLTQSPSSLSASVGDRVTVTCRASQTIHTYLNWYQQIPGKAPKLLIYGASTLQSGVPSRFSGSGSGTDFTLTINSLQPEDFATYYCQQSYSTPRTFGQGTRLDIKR
Response: > 50 µg/mL
